target: Telomerase reverse transcriptase (Homo sapiens, UniProt O14746); experiment: Inhibition of human telomerase activity by TRAP assay
Sequence (O14746 whole entry): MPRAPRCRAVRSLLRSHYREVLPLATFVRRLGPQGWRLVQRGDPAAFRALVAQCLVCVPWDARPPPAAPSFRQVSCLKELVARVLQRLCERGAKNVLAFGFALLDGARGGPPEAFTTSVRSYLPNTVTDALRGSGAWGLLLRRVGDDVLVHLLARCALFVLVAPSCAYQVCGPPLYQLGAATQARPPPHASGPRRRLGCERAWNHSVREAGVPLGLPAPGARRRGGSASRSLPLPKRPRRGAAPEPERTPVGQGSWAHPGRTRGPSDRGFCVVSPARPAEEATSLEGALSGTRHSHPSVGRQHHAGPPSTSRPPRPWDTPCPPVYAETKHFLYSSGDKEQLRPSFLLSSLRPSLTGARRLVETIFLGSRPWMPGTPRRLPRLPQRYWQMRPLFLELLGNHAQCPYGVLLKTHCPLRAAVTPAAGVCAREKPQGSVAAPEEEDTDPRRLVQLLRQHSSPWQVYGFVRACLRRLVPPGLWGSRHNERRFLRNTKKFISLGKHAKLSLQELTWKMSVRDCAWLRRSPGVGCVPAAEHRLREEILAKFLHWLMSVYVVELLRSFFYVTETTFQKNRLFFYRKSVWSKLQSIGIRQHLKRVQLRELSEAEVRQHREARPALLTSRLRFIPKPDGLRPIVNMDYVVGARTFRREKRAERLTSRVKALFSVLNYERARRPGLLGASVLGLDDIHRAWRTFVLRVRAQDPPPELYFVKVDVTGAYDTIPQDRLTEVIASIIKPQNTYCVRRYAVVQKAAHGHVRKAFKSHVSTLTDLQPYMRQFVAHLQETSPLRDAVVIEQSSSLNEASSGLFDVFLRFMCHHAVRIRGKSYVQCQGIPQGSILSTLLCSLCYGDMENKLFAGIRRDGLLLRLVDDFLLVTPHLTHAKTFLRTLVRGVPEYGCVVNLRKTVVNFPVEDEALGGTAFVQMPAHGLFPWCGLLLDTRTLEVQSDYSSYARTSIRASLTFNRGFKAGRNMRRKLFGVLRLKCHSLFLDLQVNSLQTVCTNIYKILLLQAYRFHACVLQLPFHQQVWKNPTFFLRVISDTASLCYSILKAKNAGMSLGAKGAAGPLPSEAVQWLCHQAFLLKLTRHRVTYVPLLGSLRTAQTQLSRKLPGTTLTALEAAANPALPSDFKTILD
pIC50: −log10 of the molar value.
property_measured: pIC50

{"compound_structure": "N=C(N)Nc1nc(-c2cc(Cl)sc2Cl)cs1", "numeric_value": 6.00}
